target: human TGFßRII (antigen of the Octet experiments) (human, UniProt P37173 23-166); assay: BLI (Octet)
Sequence (P37173 23-166): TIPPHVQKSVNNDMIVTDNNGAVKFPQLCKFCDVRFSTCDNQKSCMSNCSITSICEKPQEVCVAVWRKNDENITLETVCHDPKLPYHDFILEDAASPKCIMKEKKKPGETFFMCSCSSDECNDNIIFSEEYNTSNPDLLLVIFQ
Under this convention, Condition met denotes Kd strictly below 700 pM and Condition not met denotes Kd at or above 700 pM.

- H1.61 L1 XENP34517 (antibody, V domains shown) VH: QLQVQESGPGLVKPSETLSLTCTVSGGSISNSYFSWGWIRQPPGKGLEWIGSFYYGEKIYYNPSLKSRATISIDTSKSQFSLKLSSVTAADTAVYYCPRGPTMIRGVIDSWGQGTLVTVSS VL: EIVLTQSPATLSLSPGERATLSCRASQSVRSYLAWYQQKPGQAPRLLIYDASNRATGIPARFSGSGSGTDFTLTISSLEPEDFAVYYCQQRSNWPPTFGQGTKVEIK: Condition not met

Item H1.59 L1 XENP34515 (antibody, V domains shown) VH: QLQVQESGPGLVKPSETLSLTCTVSGGSISNSYFSWGWIRQPPGKGLEWIGSFYYGENTYYNPSLKSRATISIDTSKSQFSLKLSSVTAADTAVYYCPRGPTMIRGVIDSWGQGTLVTVSS VL: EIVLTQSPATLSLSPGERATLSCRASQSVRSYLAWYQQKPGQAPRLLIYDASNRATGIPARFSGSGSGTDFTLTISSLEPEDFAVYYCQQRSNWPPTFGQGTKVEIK : Kd beneath 700 pM, strictly?
Condition met

And then H1.68 L1 XENP34524 (antibody, V domains shown) VH: QLQVQESGPGLVKPSETLSLTCTVSGGSISNSYFSWGWIRQPPGKGLEWIGSFYYGEKTYYNPSLESRATISIDTSKSQFSLKLSSVTAADTAVYYCPRGPTMIRGVIDSWGQGTLVTVSS VL: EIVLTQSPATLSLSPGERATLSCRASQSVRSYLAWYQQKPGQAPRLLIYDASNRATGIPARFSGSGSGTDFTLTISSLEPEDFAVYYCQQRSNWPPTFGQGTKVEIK , what is it?
Condition not met

And then H1.51 L1 XENP34507 (antibody, V domains shown) VH: QLQVQESGPGLVKPSETLSLTCTVSGGSISNSYFSWGWIRQPPGKGLEWIGSFNYGEKTYYNPSLKSRATISIDTSKSQFSLKLSSVTAADTAVYYCPRGPTMIRGVIDSWGQGTLVTVSS VL: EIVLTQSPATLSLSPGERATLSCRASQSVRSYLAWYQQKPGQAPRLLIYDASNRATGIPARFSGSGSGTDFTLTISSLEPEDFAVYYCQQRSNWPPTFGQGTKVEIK , what is it?
Condition not met
